// data source = patent US4110472A

Experiment: in vivo
Conditions: mouse, po, mice, orally
The following molecules are shown together with reported LD50 values.

[
  {
    "Molecule": "CC[C@]12CCCN3CCc4c(n(c5ccccc45)[C@@](O)(C(=O)OC)C1)[C@@H]32 [vincamine, reference compound]",
    "Result": "460 mg/kg"
  },
  {
    "Molecule": "CN(C)CCCOC1(Cc2ccccc2)CCCCCC1 [bencyclan, reference compound]",
    "Result": "> 2000 mg/kg"
  },
  {
    "Molecule": "C=CCc1ccc(OCC(O)CNC(c2ccccc2)c2ccccc2)c(OC)c1.Cl (centres unmarked)",
    "Result": "450 mg/kg"
  },
  {
    "Molecule": "OC(CNC(c1ccccc1)c1ccccc1)COc1ccc(Cl)c(Cl)c1 (centres unmarked)",
    "Result": "> 2000 mg/kg"
  }
]

Proceed to the following item.
Tell me the measured LD50 of C/C=C/c1ccc(OCC)c(OCC(O)CNC2c3ccccc3-c3ccccc32)c1 (centres unmarked) , please.
> 2000 mg/kg

====

Assay: in vivo
Conditions: mouse, iv, mice, intravenously
Label key: y means LD50 under 80 mg/kg; n means LD50 of 80 mg/kg or more.

Here's an entry: CN(C)CCCOC1(Cc2ccccc2)CCCCCC1 [bencyclan, reference compound] . Is its LD50 below 80 mg/kg?
y

Here's an entry: C=CCc1ccc(OCC(O)CNC(c2ccccc2)c2ccccc2)c(OC)c1.Cl (centres unmarked) . Is its LD50 below 80 mg/kg?
y

Here's an entry: OC(CNC(c1ccccc1)c1ccccc1)COc1ccc(Cl)c(Cl)c1 (centres unmarked) . Is its LD50 below 80 mg/kg?
y

Here's an entry: C/C=C/c1ccc(OCC)c(OCC(O)CNC2c3ccccc3-c3ccccc32)c1 (centres unmarked) . Is its LD50 below 80 mg/kg?
n

Here's an entry: CC[C@]12CCCN3CCc4c(n(c5ccccc45)[C@@](O)(C(=O)OC)C1)[C@@H]32 [vincamine, reference compound] . Is its LD50 below 80 mg/kg?
n

====

Test: in vivo
Details: mouse, po
Where a name gives a salt, the structure may show the parent alone.
Observable: LD50

Tell me the measured LD50 of C/C=C/c1ccc(OCC)c(OCC(O)CNC(c2ccccc2)c2ccccc2)c1 (stereo not shown) [Compound A, hydrochloride] , please.
> 2000 mg/kg

====

Assay: in vivo
Conditions: mouse, iv
Where a name gives a salt, the structure may show the parent alone.
Observable: LD50 (mg/kg)
Write down the numeric answer in mg/kg and omit the unit.

Tell me the measured LD50 of C/C=C/c1ccc(OCC)c(OCC(O)CNC(c2ccccc2)c2ccccc2)c1 (stereo not shown) [Compound A, hydrochloride] , please.
80
